pKi values for the compounds below.
assay_summary: Inhibition of beta-lactamase CphA (unknown origin) expressed in Escherichia coli BL21(DE3) using imipenem as substrate by measuring substrate hydrolysis by spectrophotometric analysis
pKi: −log10 of the molar value.

| structure_smiles | pKi |
| --- | --- |
| O=C(O)c1ccccc1/C=N/n1c(-c2ccccc2)n[nH]c1=S | 4.24 |
| Oc1ccc(/C=N/n2c(-c3cc(O)ccc3O)n[nH]c2=S)c(O)c1 | 5.30 |
| O=C(O)c1ccccc1/C=N/n1c(CC(c2ccccc2)c2ccccc2)n[nH]c1=S | 4.82 |
| COc1ccc(/C=N/n2c(-c3ccccc3C)n[nH]c2=S)c(O)c1 | 4.49 |
| O=C(O)c1ccccc1/C=N/n1c(Cc2ccc3ccccc3c2)n[nH]c1=S | 4.82 |
| Cc1ccccc1-c1n[nH]c(=S)n1/N=C/c1ccc(O)cc1O | 4.21 |
| COc1cc(O)ccc1/C=N/n1c(-c2ccccc2C)n[nH]c1=S | 5.40 |
| Cc1ccccc1-c1n[nH]c(=S)n1/N=C/c1ccccc1 | 4.15 |
| S=c1[nH]nc(Cc2ccccc2)n1/N=C/c1ccc(OCc2ccccc2)cc1 | 5.26 |
| O=C(O)c1ccccc1/C=N/n1c(-c2cc(O)ccc2O)n[nH]c1=S | 4.28 |
| Cc1ccccc1-c1n[nH]c(=S)n1/N=C/c1cc(O)ccc1[N+](=O)[O-] | 5.05 |
| S=c1[nH]nc(-c2cccc3ccccc23)n1/N=C/c1ccc(OCc2ccccc2)cc1 | 5.40 |
| Cc1ccccc1-c1n[nH]c(=S)n1/N=C/c1ccc(OCc2ccccc2)cc1 | 4.66 |
| Oc1ccc(/C=N/n2c(-c3cccc4ccccc34)n[nH]c2=S)c(O)c1 | 5.40 |
| COc1ccc(O)c(-c2n[nH]c(=S)n2/N=C/c2ccccc2C(=O)O)c1 | 4.89 |
| Cc1ccccc1-c1n[nH]c(=S)n1/N=C/c1ccccc1[N+](=O)[O-] | 5.30 |
